# Test: Antagonist activity at NMDAR in Sprague-Dawley rat brain synaptoneurosomes assessed as inhibition of NMDA/glycine-induced calcium flux at 100 uM after 5 mins using FURA-2AM by fluorescent spectrometer analysis relative to control
# Type: functional
Experimental endpoint: inhibition (INH) (%)

[
  {
    "Compound": "CN(C)c1cccc2c(S(=O)(=O)NC34CC5CC(CC(C5)C3)C4)cccc12",
    "Experimental endpoint": "inhibition (INH)",
    "Unit string": "%",
    "Value": 78.05
  },
  {
    "Compound": "O=C(NC12CC3CC(CC(C3)C1)C2)c1n[nH]c2ccccc12",
    "Experimental endpoint": "inhibition (INH)",
    "Unit string": "%",
    "Value": 83
  },
  {
    "Compound": "NC12CC3CC(CC(C3)C1)C2 [AMANTADINE]",
    "Experimental endpoint": "inhibition (INH)",
    "Unit string": "%",
    "Value": 83.1
  },
  {
    "Compound": "O=C(NC12CC3CC(CC(C3)C1)C2)c1cc2ccccc2oc1=O",
    "Experimental endpoint": "inhibition (INH)",
    "Unit string": "%",
    "Value": 79.71
  },
  {
    "Compound": "O=[N+]([O-])c1ccc(NC23CC4CC(CC(C4)C2)C3)c([N+](=O)[O-])c1",
    "Experimental endpoint": "inhibition (INH)",
    "Unit string": "%",
    "Value": 80.75
  },
  {
    "Compound": "CNc1ccccc1C(=O)NC12CC3CC(CC(C3)C1)C2",
    "Experimental endpoint": "inhibition (INH)",
    "Unit string": "%",
    "Value": 96.66
  },
  {
    "Compound": "N#Cc1c2ccccc2cn1C12CC3CC(CC(C3)C1)C2",
    "Experimental endpoint": "inhibition (INH)",
    "Unit string": "%",
    "Value": 84.01
  },
  {
    "Compound": "c1ccc(CNC23OC4C5C6CC(C7C6C4C72)C53)cc1 (stereo not drawn)",
    "Experimental endpoint": "inhibition (INH)",
    "Unit string": "%",
    "Value": 86.63
  }
]
